assay: Acute toxicity, single intraperitoneal dose in mice; conditions: mouse, in vivo, ip
MEASUREMENT TYPE: LD50

IN: Look up LD50: CCC/C=C/CCC1Oc2cc[nH]c(=O)c2C=C1C (stereo not shown) [FA-4283]
OUT: ≥ 400 mg/kg

The origin of these recorded values is patent US4803275A.
